Target: T1, Recombinant human EGFR-Fc (aa 1-645 of the extracellular domain of human EGFR fused to human Fc) (human, UniProt P00533 25-645)
T1 construct: range 1-645; bought from R&D Systems; also called EGFR645-Fc; EGFR-Fc (HER-1); not shown: human Fc
Assay: SPR Biacore, EGFR645-Fc; against I1-GS10-E5 Pegylated
Readout Kind: Δka (fold)
The answer is to be given in fold; state only the numeric part.

Study these solved cases before continuing.
Binder	Units Symbol	Reported Result
I1-GSGCGS8-E5 pegylated (designed binder, PEG on the Cys of the GSGCGS8 linker, alternative clone of I1-GS10-E5 pegylated; tail of first monomer EIEK (D to E); also called I1-GSGCGS8-E5(3)) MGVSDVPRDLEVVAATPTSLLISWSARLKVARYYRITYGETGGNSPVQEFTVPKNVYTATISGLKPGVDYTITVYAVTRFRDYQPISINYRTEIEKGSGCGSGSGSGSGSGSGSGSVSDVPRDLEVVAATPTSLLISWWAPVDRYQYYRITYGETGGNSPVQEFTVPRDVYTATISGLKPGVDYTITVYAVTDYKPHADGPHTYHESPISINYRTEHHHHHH	fold	1
I1-GS10-E5(S91C) pegylated (designed binder, PEG on Cys at position 91 of E5 (position of SEQ ID NO: 1), also called I1-GS10-E5(S91C)(8)) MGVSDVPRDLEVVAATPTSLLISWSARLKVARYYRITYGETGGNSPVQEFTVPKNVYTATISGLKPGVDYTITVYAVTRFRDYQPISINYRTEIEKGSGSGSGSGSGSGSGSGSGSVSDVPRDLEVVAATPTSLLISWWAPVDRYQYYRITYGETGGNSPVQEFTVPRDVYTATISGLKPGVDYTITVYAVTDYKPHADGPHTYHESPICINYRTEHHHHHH	fold	0.4
I1(S62C)-GS10-E5 pegylated (designed binder, PEG on Cys at position 62 of I1 (position of SEQ ID NO: 1), also called I1(S62C)-GS10-E5(5)) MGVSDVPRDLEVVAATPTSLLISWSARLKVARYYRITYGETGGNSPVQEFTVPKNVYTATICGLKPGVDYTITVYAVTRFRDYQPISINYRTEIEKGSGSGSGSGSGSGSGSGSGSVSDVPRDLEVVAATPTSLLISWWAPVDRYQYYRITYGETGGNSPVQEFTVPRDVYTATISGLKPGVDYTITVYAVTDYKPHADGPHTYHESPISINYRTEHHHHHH	fold	0.8

// next item, Δka (fold) requested
Query: GET /values?readout=Δka (fold)&item= I1(S91C)-GS10-E5 pegylated (designed binder, PEG on Cys at position 91 of I1 (position of SEQ ID NO: 1), also called I1(S91C)-GS10-E5(7)) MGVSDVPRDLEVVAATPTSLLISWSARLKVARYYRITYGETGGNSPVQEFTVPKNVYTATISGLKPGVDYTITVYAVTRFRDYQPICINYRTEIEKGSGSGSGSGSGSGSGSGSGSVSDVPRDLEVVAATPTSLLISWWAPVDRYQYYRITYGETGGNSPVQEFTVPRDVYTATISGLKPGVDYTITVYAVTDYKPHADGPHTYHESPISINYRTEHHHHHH
Result: 0.7
